I'd be grateful if you could share measured log2 fold change for these entries.
# Target system: YIPF4 (UniProt Q9BSR8)
# Sequence (Q9BSR8 whole entry, looked up): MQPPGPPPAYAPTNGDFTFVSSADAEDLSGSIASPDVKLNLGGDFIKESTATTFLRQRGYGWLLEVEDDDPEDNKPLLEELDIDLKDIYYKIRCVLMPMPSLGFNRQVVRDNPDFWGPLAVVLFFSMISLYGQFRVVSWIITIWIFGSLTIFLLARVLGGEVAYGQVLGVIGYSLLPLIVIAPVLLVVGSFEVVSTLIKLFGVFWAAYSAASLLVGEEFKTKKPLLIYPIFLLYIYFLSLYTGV
# Assay summary: log2 fold change, soluble protein after heating vs DMSO (PISA); higher = thermal stabilisation; K562 cells, 10 uM, 30 min; active = over 0.2 and 3.5 SD of the protein, either way, in both replicates (recomputed)
Of roughly 7,900 targets only a part is listed; those with a hit were picked by preference. About 0.6% of all pairs of compound and target were hits.

Compound | log2 fold change
CCn1c(C(=O)N(C2CC2)C2CC2)cc2c3c(ncn3C)c(Nc3cc(C)n(C)n3)nc21 | 0 (inactive)
Cc1cc(Nc2cc(CN3CCOCC3)c3nc(C)c(Cc4ccc(Cl)cc4F)n3n2)n[nH]1 | -0.086 (inactive)
C[C@H](Nc1ncnc2nc[nH]c12)c1cc2cccc(Cl)c2c(=O)n1-c1ccccc1 | 0.163 (inactive)
C[C@@H](N)c1ccc(C(=O)Nc2ccnc3[nH]ccc23)cc1 | -0.089 (inactive)
Cn1c2cc(S(C)=O)sc2c2cnn(Cc3cccc(N)c3)c(=O)c21 (centres undefined) | -0.06 (inactive)
Cc1cccc(-c2[nH]c(C(C)(C)C)nc2-c2ccc3nccnc3c2)n1 | -0.067 (inactive)
CN(C)CC(=O)Nc1ccc2[nH]c(=O)c3ccccc3c2c1 | 0.09 (inactive)
CS(=O)(=O)N1CCN(Cc2cc3nc(-c4cccc5[nH]ncc45)nc(N4CCOCC4)c3s2)CC1 | 0.15 (inactive)

Shifting focus to the compound that follows.
Request: // query log2 fold change value for entry CC[C@H](C)n1cc(C)c2c(C(=O)NCc3c(C)cc(C)[nH]c3=O)cc(-c3ccc(N4CCNCC4)nc3)cc21
Response: -0.016 (inactive)

---

# Target system: ZDHHC20 (UniProt Q5W0Z9)
# Sequence (Q5W0Z9 whole entry, looked up): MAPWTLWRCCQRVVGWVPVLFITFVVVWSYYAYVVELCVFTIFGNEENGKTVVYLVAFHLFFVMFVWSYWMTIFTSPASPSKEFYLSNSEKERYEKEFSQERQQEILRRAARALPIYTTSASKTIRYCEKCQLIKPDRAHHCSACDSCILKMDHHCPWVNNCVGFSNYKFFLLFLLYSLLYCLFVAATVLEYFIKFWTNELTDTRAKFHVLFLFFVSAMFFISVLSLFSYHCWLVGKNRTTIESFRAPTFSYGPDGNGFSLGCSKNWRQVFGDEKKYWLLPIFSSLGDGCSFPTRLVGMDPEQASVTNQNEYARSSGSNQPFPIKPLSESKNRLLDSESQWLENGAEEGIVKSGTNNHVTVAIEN
# Assay summary: log2 fold change, soluble protein after heating vs DMSO (PISA); higher = thermal stabilisation; K562 cells, 10 uM, 30 min; active = over 0.2 and 3.5 SD of the protein, either way, in both replicates (recomputed)
About 7,900 targets were measured; listed, in parts, are those with a hit and a random draw of the rest. About 0.6% of all pairs of compound and target were hits.
Decide using log2 fold change: a value greater than or equal to 0.05 is class 1, a smaller one is class 0.

A selection of reference data follows.
Compound | Label value
C#Cc1cccc(Nc2ncnc3cc(OCCOC)c(OCCOC)cc23)c1 | class 1
CS(=O)(=O)c1ccc(-c2cnc(N)c(C(=O)Nc3ccccc3)n2)cc1 | class 1
COC(=O)N[C@@H](C)CNc1nccc(-c2cn(C(C)C)nc2-c2cc(Cl)cc(NS(C)(=O)=O)c2F)n1 | class 0
C[C@@H]1COCCN1c1cc(C2(S(C)(=O)=O)CC2)nc(-c2cccc3[nH]ccc23)n1 | class 1

Request: Check this compound for log2 fold change at or above 0.05: CC[C@H](C)n1cc(C)c2c(C(=O)NCc3c(C)cc(C)[nH]c3=O)cc(-c3ccc(N4CCNCC4)nc3)cc21
Response: class 0

Request: Same again, this time with CC1=C(C(=O)Nc2cc3cn[nH]c3cc2F)C(c2ccc(C(F)(F)F)cc2)CC(=O)N1 (stereo not drawn)
Response: class 0

---

# Target system: ZNF511 isoform 1 (UniProt Q8NB15)
# Sequence (Q8NB15 whole entry, looked up, canonical isoform): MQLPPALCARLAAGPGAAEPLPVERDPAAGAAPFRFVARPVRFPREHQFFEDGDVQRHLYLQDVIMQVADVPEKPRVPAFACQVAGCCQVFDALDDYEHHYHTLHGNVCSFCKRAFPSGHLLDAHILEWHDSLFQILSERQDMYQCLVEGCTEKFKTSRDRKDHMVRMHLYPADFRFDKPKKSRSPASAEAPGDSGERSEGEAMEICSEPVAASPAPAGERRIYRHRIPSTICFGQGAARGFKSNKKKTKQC
# Assay summary: log2 fold change, soluble protein after heating vs DMSO (PISA); higher = thermal stabilisation; K562 cells, 10 uM, 30 min; active = over 0.2 and 3.5 SD of the protein, either way, in both replicates (recomputed)
The full data set covers some 7,900 targets. This sample favours those with a hit. About 0.6% of all pairs of compound and target were hits.
Decide using log2 fold change: a value greater than or equal to 0.01 is True, a smaller one is False.

Compound | Label value
COC(=O)[C@H](CCSC)NC(=O)c1ccc(NC[C@@H](N)CS)cc1-c1ccccc1 | False

Request: Check this compound for log2 fold change at or above 0.01: O=C1NC(=NCc2cccs2)S/C1=C\c1ccc2ncccc2c1
Response: True

Request: Same again, this time with CN1CCc2c(c3ccccc3n2Cc2ccc(C(=O)NO)cc2)C1
Response: False
